Vesicular stomatitis virus (whole virion) (Vesicular stomatitis virus) data, read-out binding signal (ohm (RCTV-RCTB))
Give bare numbers.

sequence-chain	binding signal (ohm (RCTV-RCTB))
CTCCTCTGACTGTAACCACGTACCGCCCGTGACCCTCACATCCCTCCTCTGTTCTCCGCGGGCTTCTGGACTACCTATGC [SwAp10]	3720
CTCCTCTGACTGTAACCACGTACCACCCGTGACCCTCACATCCCTCCTCTGACGTAACCACGCGGGCTTCTGGACTACCTATGC [SwAp8]	1680
CTCCTCTGACTGTAACCACGTACCACCCGTGACGCGCACATCCCTCCTCTGTTCTCCGCGGGCTTCTGGACTACCTATGC [SwAp2]	1420
CTCCTCTGACTGTAACCACGCGCCCTCAGAACTTTTGTATCCGAACACCTGCATCGTCCGGGCTTCTGGACTACCTATGC [SwAp1]	1040
TCCTCTGACTGTAACCACGCAGCCACCATACTGTCCCGTTTGCCCCCGCCGATTCCGTCGGCTTCTGGACTACCTATGC [SwAp11]	373

Parameter requested: binding signal (ohm (RCTV-RCTB)). Apply to each item below.
1. CTCCTCTGACTGTAACCACGTGCCCCCTCCATCCCGAGTAACCTACGTCCATGTCTCGCTGGCTTCTGGACTACCTATGC [SwAp4]
2. CTCCTCTGACTGTAACCACGTACCACCCTTGACCCTCACATCCCTCCTCTGTTCTCCGCGGGCTTCTGGACTACCTATGC [SwAp14]
3. CTCCTCTGACTGTAACCACGTACCACCCGTGACCCTCACATCCCTCCTCTGTTCTCCGCGGGCTTCTGGACTACCTATGC [SwAp5]

1: 955; 2: 709; 3: 838

Parameter requested: binding signal (ohm (RCTV-RCTB)). Apply to each item below.
1. CTCCTCTGACTGTAACCACGTACCACCCGTGGCCCTCACATCCCTCCTCTGTTCTCCGCGGGCTTCTGGACTACCTATGC [SwAp7]
2. CTCCTCTGACTGTAACCACGTGGCACTGTTGTCATCACTGTCCCCCCCTAACTCGTCCGTGGCTTCTGGACTACCTATGC [SwAp6]

1770
1290

Parameter requested: binding signal (ohm (RCTV-RCTB)). Apply to each item below.
1. CTCCTCTGACTGTAACCACGTACCACCCGTGACCCTTACATCCCTCCTCTGTTCTCCGCGGGCTTCTGGACTACCTATGC [SwAp12]
2. CTCCTCTGACTGTAACCACGNNNNNNNNNNNNNNNNNNNNNNNNNNNNNNNNNNNNNNNGGCTTCTGGACTACCTATGC [Pool 10]
3. CTCCTCTGACTGTAACCACGGCACCCCGAGGCAATTTCGCGCATAGTTCATCCTGTTTGGGGCTTCTGGACTACCTATGC [SwAp15]
4. CTCCTCTGACTGTAACCACGTGCCCCCTCCATCCCGAGTAACCTACGTCCATGTCTCGCTGGCTTCTGGACTACCTATGC [SwAp3]
5. CTCCTCTGACTGTAACCACGTACCACCCGTGGCCCTCACATCCCTCCTCTGTTCTCCGCGGGCTTCTGGACTACCTATGC [SwAp9]

2180
182
930
803
1180

The sequence CTCCTCTGACTGTAACCACGTACCACCCGTGACCCTCACATCCCTCCTCTGTTCTCCGCGGGCTTCTGGACTACCTATGC [SwAp13] showed binding signal (ohm (RCTV-RCTB)) equal to 1980
